# experiment: Pharmacokinetics after oral administration of LJF extract in normal rats
# Type: in vivo, Sprague-Dawley rats
# conditionSet: male, Sprague-Dawley, rat; normal group (N), oral LJF ethanol extract 15.75 g/kg, plasma, mean ± SD, n = 6; read-out: MRT0–t
Reported MRT last is given for each of the following compounds.
Response body: numeric value in h, unit text excluded.

These recorded examples may help you get a feel for the data.
O=C(O)c1ccc(O)c(O)c1: 23.2
O=C(/C=C/c1ccc(O)c(O)c1)O[C@@H]1C[C@](O)(C(=O)O)C[C@@H](O)[C@H]1O: 18
O=C(/C=C/c1ccc(O)c(O)c1)O[C@H]1C[C@](O)(C(=O)O)C[C@@H](O)[C@H]1O: 13.9

Then this compound:
Record O=C(/C=C/c1ccc(O)c(O)c1)O[C@@H]1[C@H](O)C[C@@](O)(C(=O)O)C[C@@H]1O (stereo in doubt) . Reported MRT last: 9.65
